Listed below: fold change (FC) values for each entry.
biological target: Keap1/Nrf2 (Homo sapiens) (UniProt Q16236+Q14145); assay: Induction of Nrf2/Keap1 in human HCT116 cells assessed as induction of ARE activity at 20 uM after 12 hrs by luciferase reporter gene assay relative to control; format: cell-based; settings: HCT-116
Sequence (Q14145 whole entry, looked up): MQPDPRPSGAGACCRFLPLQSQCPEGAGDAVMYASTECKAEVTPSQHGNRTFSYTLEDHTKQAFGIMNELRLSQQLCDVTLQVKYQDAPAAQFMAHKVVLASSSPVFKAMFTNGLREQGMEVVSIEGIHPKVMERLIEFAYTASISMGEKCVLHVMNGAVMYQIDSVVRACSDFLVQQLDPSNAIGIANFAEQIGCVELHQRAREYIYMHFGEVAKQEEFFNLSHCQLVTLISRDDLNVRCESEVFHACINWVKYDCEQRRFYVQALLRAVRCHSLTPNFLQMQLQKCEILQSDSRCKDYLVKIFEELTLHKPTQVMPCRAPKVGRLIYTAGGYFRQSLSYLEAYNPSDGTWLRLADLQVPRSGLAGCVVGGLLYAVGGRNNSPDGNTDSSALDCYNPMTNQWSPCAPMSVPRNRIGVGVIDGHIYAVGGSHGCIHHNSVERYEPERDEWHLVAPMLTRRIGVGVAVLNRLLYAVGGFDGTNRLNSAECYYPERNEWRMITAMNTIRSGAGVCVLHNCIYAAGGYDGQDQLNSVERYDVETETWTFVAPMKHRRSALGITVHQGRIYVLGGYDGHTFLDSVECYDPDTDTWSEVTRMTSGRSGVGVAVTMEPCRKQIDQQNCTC
Sequence (Q16236 whole entry, looked up): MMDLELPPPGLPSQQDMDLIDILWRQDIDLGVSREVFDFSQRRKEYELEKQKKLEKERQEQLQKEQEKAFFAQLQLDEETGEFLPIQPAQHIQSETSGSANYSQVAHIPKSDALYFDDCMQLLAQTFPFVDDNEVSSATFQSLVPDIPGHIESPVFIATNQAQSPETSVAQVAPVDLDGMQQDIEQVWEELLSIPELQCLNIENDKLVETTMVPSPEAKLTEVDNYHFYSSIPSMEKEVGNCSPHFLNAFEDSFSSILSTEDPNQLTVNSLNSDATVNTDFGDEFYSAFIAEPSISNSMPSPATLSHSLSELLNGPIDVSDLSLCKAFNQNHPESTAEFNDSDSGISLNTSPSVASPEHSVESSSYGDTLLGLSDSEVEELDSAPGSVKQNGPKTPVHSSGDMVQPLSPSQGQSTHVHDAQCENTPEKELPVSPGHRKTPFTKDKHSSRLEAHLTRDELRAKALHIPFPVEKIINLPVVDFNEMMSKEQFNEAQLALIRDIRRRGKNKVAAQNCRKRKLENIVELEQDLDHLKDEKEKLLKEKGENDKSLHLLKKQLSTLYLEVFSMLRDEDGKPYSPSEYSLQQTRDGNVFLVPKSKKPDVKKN
Give the figure only, with no unit attached.

Observe how each entry below is paired with its result.
- smiles-record: "COc1ccc(/C=C/C(=O)c2c(O)cc(C)oc2=O)cc1"
  experimental-value: 6.48
- smiles-record: "Cc1cc(O)c(C(=O)/C=C/c2ccc[nH]2)c(=O)o1"
  experimental-value: 1.66
- smiles-record: "Cc1cc(O)c(C(=O)/C=C/c2ccc(F)cc2)c(=O)o1"
  experimental-value: 6.33
- smiles-record: "CCOc1ccc(/C=C/C(=O)c2c(O)cc(C)oc2=O)cc1"
  experimental-value: 4.66
- smiles-record: "Cc1cc(O)c(C(=O)/C=C/c2ccccc2F)c(=O)o1"
  experimental-value: 7.08

// fold change (FC) lookup, molecule = Cc1cc(O)c(C(=O)/C=C/c2ccccc2)c(=O)o1 , result: 4.21

// fold change (FC) lookup, molecule = Cc1cc(O)c(C(=O)/C=C/c2cccs2)c(=O)o1 , result: 4.53

// fold change (FC) lookup, molecule = Cc1cc(O)c(C(=O)/C=C/c2ccc(Cl)cc2Cl)c(=O)o1 , result: 5.49

// fold change (FC) lookup, molecule = Cc1cc(O)c(C(=O)/C=C/c2ccccc2C(F)(F)F)c(=O)o1 , result: 4.27

// fold change (FC) lookup, molecule = Cc1cc(O)c(C(=O)/C=C/c2ccc(C#N)cc2)c(=O)o1 , result: 3.68

// fold change (FC) lookup, molecule = COc1cc(/C=C/C(=O)c2c(O)cc(C)oc2=O)cc(OC)c1OC , result: 8.58

// fold change (FC) lookup, molecule = Cc1cc(O)c(C(=O)/C=C/c2ccc([N+](=O)[O-])cc2)c(=O)o1 , result: 4.77

// fold change (FC) lookup, molecule = Cc1cc(O)c(C(=O)/C=C/c2ccccc2[N+](=O)[O-])c(=O)o1 , result: 2.74

// fold change (FC) lookup, molecule = COc1ccccc1/C=C/C(=O)c1c(O)cc(C)oc1=O , result: 5.86

// fold change (FC) lookup, molecule = Cc1cc(O)c(C(=O)/C=C/c2ccc(N(C)C)cc2)c(=O)o1 , result: 4.55

// fold change (FC) lookup, molecule = Cc1cc(O)c(C(=O)/C=C/c2ccc(F)c(F)c2)c(=O)o1 , result: 9.65

// fold change (FC) lookup, molecule = Cc1cc(O)c(C(=O)/C=C/c2ccccc2Cl)c(=O)o1 , result: 5.08

// fold change (FC) lookup, molecule = Cc1cc(O)c(C(=O)/C=C/c2cccc(F)c2)c(=O)o1 , result: 7.04

// fold change (FC) lookup, molecule = Cc1cc(O)c(C(=O)/C=C/c2ccc(F)cc2F)c(=O)o1 , result: 6.93

// fold change (FC) lookup, molecule = COc1ccc(/C=C/C(=O)c2c(O)cc(C)oc2=O)c(OC)c1 , result: 8.21

meta.source: ChEMBL document CHEMBL2406970
